- system: MAP3K7 TAB1 (human) (UniProt Q15750+O43318)
- Sequence (O43318 whole entry, looked up): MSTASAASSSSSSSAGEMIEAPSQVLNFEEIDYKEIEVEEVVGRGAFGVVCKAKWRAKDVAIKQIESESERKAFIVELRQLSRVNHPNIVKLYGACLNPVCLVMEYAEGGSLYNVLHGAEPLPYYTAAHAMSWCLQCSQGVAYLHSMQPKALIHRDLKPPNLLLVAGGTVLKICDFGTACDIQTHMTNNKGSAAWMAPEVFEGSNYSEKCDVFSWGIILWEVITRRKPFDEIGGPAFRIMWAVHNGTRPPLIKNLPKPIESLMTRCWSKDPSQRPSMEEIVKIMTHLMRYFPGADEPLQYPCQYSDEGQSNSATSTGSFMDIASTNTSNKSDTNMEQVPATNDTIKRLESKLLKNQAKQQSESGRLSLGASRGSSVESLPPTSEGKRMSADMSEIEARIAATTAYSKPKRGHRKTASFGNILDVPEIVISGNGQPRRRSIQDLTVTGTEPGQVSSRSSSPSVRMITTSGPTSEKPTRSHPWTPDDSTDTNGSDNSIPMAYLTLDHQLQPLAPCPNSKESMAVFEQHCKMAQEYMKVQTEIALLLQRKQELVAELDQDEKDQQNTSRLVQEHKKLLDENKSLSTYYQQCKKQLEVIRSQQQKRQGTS
- Sequence (Q15750 whole entry, looked up): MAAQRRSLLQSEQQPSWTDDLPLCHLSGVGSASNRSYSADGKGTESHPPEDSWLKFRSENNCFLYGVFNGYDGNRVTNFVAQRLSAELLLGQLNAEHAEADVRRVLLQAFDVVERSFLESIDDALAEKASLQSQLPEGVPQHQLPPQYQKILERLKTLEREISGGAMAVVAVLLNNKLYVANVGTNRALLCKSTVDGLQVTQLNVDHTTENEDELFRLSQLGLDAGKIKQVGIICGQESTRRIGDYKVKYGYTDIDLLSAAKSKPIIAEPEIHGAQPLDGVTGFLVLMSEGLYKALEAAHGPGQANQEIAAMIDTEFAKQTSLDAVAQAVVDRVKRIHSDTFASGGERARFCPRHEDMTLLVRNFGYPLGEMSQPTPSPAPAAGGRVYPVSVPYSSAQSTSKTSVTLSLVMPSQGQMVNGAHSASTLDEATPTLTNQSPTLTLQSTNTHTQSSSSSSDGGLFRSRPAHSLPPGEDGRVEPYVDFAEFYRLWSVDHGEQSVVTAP
- method: radiometric filter-binding kinase assay
- protocol conditions: compound 1.0 µM
observation type: residual activity (%)

Take a look at these entries with their results.
Give the measured residual activity of `Cc1cccc(-c2nn(C(=S)Nc3ccccc3)cc2-c2ccnc3ccccc23)n1` .
81

Fill in: residual activity of `NS(=O)(=O)OC[C@@H]1C[C@@H](n2ccc3c(N[C@H]4CCc5ccccc54)ncnc32)C[C@@H]1O` is ___
107

Field request: residual activity | item: `C=CC(=O)N1CCC[C@@H](n2nc(-c3ccc(Oc4ccccc4)cc3)c3c(N)ncnc32)C1`
106

Can you share its residual activity? I mean this molecule: `CCn1c(-c2nonc2N)nc2cncc(CNC3CCNCC3)c21`
94

What does the data say about its residual activity? Entry: `c1ccc2c(-c3cnn4cc(-c5ccc(N6CCNCC6)cc5)cnc34)ccnc2c1`
44

A. CNC(=O)C1[C@H]2O[C@@](C)([C@@H]1N)n1c3ccccc3c3c4c(c5c6ccccc6n2c5c31)C(=O)NC4 (some centres undefined)
B. COc1ccc(-n2ncc3cnc(Nc4cc(OC)c(OC)c(OCCCN5CCN(C)CC5)c4)nc32)cc1
C. O=C(Nc1ccccc1-c1cn2c(CN3CCNCC3)csc2n1)c1cnc2ccccc2n1
D. COc1cc(O)c2c(c1)/C=C/C[C@H](O)[C@H](O)C(=O)/C=C\C[C@H](C)OC2=O
List these items ordered by residual activity, big to small. Answer by listing the labels in the requested order.
C, B, D, A
